- System: glycogen synthase kinase-3 (GSK3A per assay name; protocol says GSK3B)
- PROTOCOL_NOTES: GSK3 binders on small-molecule microarrays, primary screen, biochemical, small-molecule microarray, 635 nm fluorescence, GSK3A (AID 1103); note: the record names both GSK3A and GSK3B
- CONDITION_INFO: small-molecule microarray binding, fluorescence 635 nm; higher = more signal

SMILES_TEXT	composite z-score
C=CCNC(=O)[C@@H]1[C@H]2C(=O)O[C@H](c3ccccc3)[C@H](c3ccccc3)N2[C@H](c2ccc(OCCO)cc2)[C@@]12C(=O)Nc1ccc(C#Cc3ccc(OC)cc3)cc12	1.29
[N-]=[N+]=NCc1ccccc1[C@@H]1OC(c2ccc(OCCCO)cc2)=N[C@]1(CCS(=O)(=O)c1ccccc1)C(=O)NCCN1CCOCC1	1.05
O=C(NCc1ccc(F)cc1)[C@H]1C[C@H]2C(=O)N[C@@H](Cc3ccccc3)C(=O)N2[C@H]1c1ccc(O)cc1	-0.469

====

- System: wheat germ agglutinin (Triticum aestivum), Alexa647-labelled
- PROTOCOL_NOTES: wheat germ agglutinin binders on compound microarrays, profiling panel, artefact control for SMM control-protein annotation, biochemical, small-molecule microarray, 635/667 nm fluorescence (AID 1140);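 note: score merges 667 nm feature emission with signal to noise over triplicate slides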
- CONDITION_INFO: WGA-A647 binding, 635 nm fluorescence, higher = more signal

MOLECULE	composite z-score
C[N+](C)(C)CCCC[C@@H]1NC(=O)[C@@H]2C[C@H](C(=O)NCCCCCN)[C@H](c3cccc(OCCO)c3)N2C1=O	1.07
C=CCOC(=O)[C@@H]1[C@H]2C(=O)O[C@H](c3ccccc3)[C@H](c3ccccc3)N2[C@H](c2ccc(OCCOC(=O)[C@@H]3C[C@@H]4C(=O)N[C@@H](CCCC[N+](C)(C)C)C(=O)N4[C@@H]3c3cccc(OCCO)c3)cc2)[C@@]12C(=O)Nc1ccc(I)cc12	0.347
O=C(NCC(F)(F)F)[C@@H]1c2ccccc2C(=O)N(C2CCCCC2)[C@H]1c1ccc(CO)cc1	0.807
CC(C)C[C@H]1NC(=O)[C@@]23C(=O)N[C@@H](Cc4ccccc4)C2[C@H](C)[C@@]2(C)O[C@H]2C3/C=C/C/C=C\CNC(=O)[C@H](Cc2ccccc2)NC1=O (some centres undefined)	-0.204
COC(=O)[C@@]1(Cc2ccccc2)[C@H]2c3cc(C(=O)N(C)C)n(CCSCCO)c3C[C@H]2CN1C(=O)c1ccccc1	0.879
COc1ccc(C(=O)Nc2ccc(CN3C(=O)[C@@]4(O[C@@H](CCO)[C@H]([Si](C)(C)c5ccc(OC)cc5)[C@H]4C)c4ccccc43)cc2)cc1	0.559
C[C@]1(C(=O)NC2CC2)c2ccccc2C(=O)N(Cc2cc(C(F)(F)F)cc(C(F)(F)F)c2)[C@H]1c1ccc(CO)cc1	0.772
CC(=O)NCCCC[C@@H]1NC(=O)[C@@H]2C[C@H](C(=O)NCCCCCCNC(=O)CS)[C@H](c3cccc(OCCO)c3)N2C1=O	0.379
CC(C)(C)OC(=O)CC[C@]1(C(=O)NCC(O)CO)COC(c2ccc(OCCCO)cc2)=N1 (some centres undefined)	0.879
CCCC#C[Si](O[C@H](CC)c1cn([C@H](CO)Cc2ccccc2)nn1)(C(C)C)C(C)C	0.0686
CCCC[C@@H]1C[C@H]1[C@@H](NC(=O)c1ccco1)c1ccc(C(=O)OC)cc1	0.586
COc1ccc([Si](C)(C)[C@@H]2[C@@H](CC(=O)N3Cc4ccccc4C[C@H]3CO)O[C@]3(C(=O)N(C)c4c(Br)cc(C)cc43)[C@H]2C)cc1	1.03
[N-]=[N+]=Nc1ccccc1C[C@@]1(C(=O)NCCN2CCOCC2)N=C(c2ccc(OCCCO)cc2)O[C@@H]1c1ccccc1	0.823
Cc1ccc(S[C@]2(C(=O)NC3CC3)CC(=O)N(C3Cc4ccccc4C3)[C@@H]2c2ccc(CO)cc2)cc1	-0.0705

These entries and their values trace back to PubChem BioAssay.
